Attribution: patent US20160297884A1

Entries and their Kd
Target: T1, Human BCMA (human, UniProt Q02223 1-54, limits assumed)
T1 construct: also called huBCMA; B-cell maturation antigen
T1 sequence (looked up): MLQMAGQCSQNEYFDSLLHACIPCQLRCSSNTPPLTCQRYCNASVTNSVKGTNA
Test: SPR, IgG immobilised, human BCMA analyte
Your answer should be a plain number; it is taken to be in nM.

Consider the worked cases shown below.
[
  {
    "binder": "A02_Rd4_6nM_C10 (antibody, V domains shown, IgG) VH: EVQLLESGGGLVQPGGSLRLSCAASGFTFSSYAMNWVRQAPGKGLEWVSAISDSGGSCWYADSVKGRFTISRDNSKNTLYLQMNSLRAEDTAVYYCARYWPMTPWGQGTLVTVSS VL: EIVLTQSPGTLSLSPGERATLSCRASQSVEMSYLAWYQQKPGQAPRLLMYDASIRATGIPDRFSGSGSGTDFTLTISRLEPEDFAVYYCQQYAHWPLTFGQGTKVEIK",
    "reportedEndpoint": "Kd",
    "obsValue": 0.07
  },
  {
    "binder": "C01_Rd4_6nM_C09 (antibody, V domains shown, IgG) VH: EVQLLESGGGLVQPGGSLRLSCAASGFTFSSYPMSWVRQAPGKGLEWVSATVGSGGSIGYADSVKGRFTISRDNSKNTLYLQMNSLRAEDTAVYYCARYWPMDSWGQGTLVTVSS VL: EIVLTQSPGTLSLSPGERATLSCACSQSVSSTYLAWYQQKPGQAPRLLIYDASSRAPGIPDRFSGSGSGTDFTLTISRLEPEDFAVYYCQQYSAWPLTFGQGTKVEIK",
    "reportedEndpoint": "Kd",
    "obsValue": 0.811
  }
]

Proceed to the following item.
Data request: Would you mind telling me what Kd value was observed for COMBO_Rd4_0.6nM_C23 (antibody, V domains shown, IgG) VH: EVQLLESGGGLVQPGGSLRLSCAASGFTFSSYPMSWVRQAPGKGLEWVSALFGSGGSTYYADSVKGRFTISRDNSKNTLYLQMNSLRAEDTAVYYCARYWPMDSWGQGTLVTVSS VL: EIVLTQSPGTLSLSPGERATLSCRPRQSVSSSYLAWYQQKPGQAPRLLMYDASIRATGIPDRFSGSGSGTDFTLTISRLEPEDFAVYYCQQYQDWPLTFGQGTKVEIK ?
Data returned: 0.028
